These data points were gathered from patent US4798834A.

Biological target: 5-HT1 receptor
Experiment: binding to 5-HT1 sites ([3H]serotonin displacement, rat brain frontal cortex)
Settings: 2 nM [3H]serotonin; rat frontal cortex
Labelling field: enter Met if recorded IC50 is less than 20 nM. Enter Not met if it equals or exceeds that cut-off.

COC(=O)[C@@H]1C=C2c3cccc4c3[C@@H](CN4)C[C@H]2N(C)C1 [Example 9, (3β)-2,3-Dihydro-methyllysergate] :: Not met
C=C1C=C2c3cccc4c3[C@@H](CN4)C[C@H]2N(C)C1 [Example 4, (3β)-2,3-Dihydrolysergene] :: Not met
CN1C[C@H](CO)C=C2c3cccc4c3[C@@H](CN4)C[C@H]21 [Example 3, (3β)-2,3-Dihydrolysergol] :: Not met

A record lists C[C@@H]1C=C2c3cccc4c3[C@@H](CN4)C[C@H]2N(C)C1 [Example 1, (3β)-2,3-Dihydrolysergine] . Is its IC50 below 20 nM?
Met

A record lists CN1C[C@H](CSc2ccccn2)C=C2c3cccc4c3[C@@H](CN4)C[C@H]21 [Example 8] . Is its IC50 below 20 nM?
Met

A record lists CN1C[C@H](CSc2ccccc2)C=C2c3cccc4c3[C@@H](CN4)C[C@H]21 [Example 7] . Is its IC50 below 20 nM?
Met

A record lists CCCN1C[C@H](C)C=C2c3cccc4c3[C@@H](CN4)C[C@H]21 [Example 10] . Is its IC50 below 20 nM?
Not met

A record lists NCCc1c[nH]c2ccc(O)cc12 [serotonin, 5-hydroxytryptamine, reference compound] . Is its IC50 below 20 nM?
Met

---

Tested on: 5-HT1 receptor
Test: binding to 5-HT1 sites ([3H]serotonin displacement, rat brain frontal cortex)
Design: species or system rat (Wistar)
Conditions: IC50 5HT2 / IC50 5HT1; values greater than 1 indicate selectivity for the 5HT1 receptor
Description: All radioactive ligands were obtained from New England Nuclear, Boston, Mass., USA. Specific binding was determined as the difference between total binding and nonspecific binding. Eleven concentrations of each of the compounds tested were used between 0.1 and 10,000 nM. All samples were run in duplicate.
Labelling field: enter Condition met if recorded Selectivity Ratio is less than 50. Enter Condition not met if it equals or exceeds that cut-off.

For orientation, consider the following solved cases.
CSC[C@@H]1C=C2c3cccc4c3[C@@H](CN4)C[C@H]2N(C)C1 :: Condition not met
CN1C[C@H](CSc2ccccn2)C=C2c3cccc4c3[C@@H](CN4)C[C@H]21 :: Condition met
C=C1C=C2c3cccc4c3[C@@H](CN4)C[C@H]2N(C)C1 [Example 4, (3β)-2,3-Dihydrolysergene] :: Condition met

A record lists CN1C[C@H](CSc2ccccc2)C=C2c3cccc4c3[C@@H](CN4)C[C@H]21 . Is its Selectivity Ratio below 50?
Condition met

A record lists COC(=O)[C@@H]1C=C2c3cccc4c3[C@@H](CN4)C[C@H]2N(C)C1 [Example 9, (3β)-2,3-Dihydro-methyllysergate] . Is its Selectivity Ratio below 50?
Condition met

---

Molecular target: 5-HT2 receptor (Rattus norvegicus)
Sequence (P14842 whole entry): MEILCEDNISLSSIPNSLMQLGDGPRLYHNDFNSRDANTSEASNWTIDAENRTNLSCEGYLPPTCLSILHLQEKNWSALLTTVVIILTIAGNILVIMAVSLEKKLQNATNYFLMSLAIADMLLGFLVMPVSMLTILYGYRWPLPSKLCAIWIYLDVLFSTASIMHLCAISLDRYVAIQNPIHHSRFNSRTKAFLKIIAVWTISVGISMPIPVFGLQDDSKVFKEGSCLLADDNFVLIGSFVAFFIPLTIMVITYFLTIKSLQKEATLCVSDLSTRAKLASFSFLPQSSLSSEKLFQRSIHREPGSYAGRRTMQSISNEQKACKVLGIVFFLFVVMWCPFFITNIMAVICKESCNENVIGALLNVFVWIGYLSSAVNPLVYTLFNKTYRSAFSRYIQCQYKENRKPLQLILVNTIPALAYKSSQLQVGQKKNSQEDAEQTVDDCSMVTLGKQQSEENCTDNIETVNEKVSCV
Labelling field: enter 1.0 if recorded IC50 is less than 2000 nM. Enter 0.0 if it equals or exceeds that cut-off.

A record lists C[C@@H]1C=C2c3cccc4c3[C@@H](CN4)C[C@H]2N(C)C1 [Example 1, (3β)-2,3-Dihydrolysergine] . Is its IC50 below 2000 nM?
1.0

A record lists CN1C[C@H](CO)C=C2c3cccc4c3[C@@H](CN4)C[C@H]21 [Example 3, (3β)-2,3-Dihydrolysergol] . Is its IC50 below 2000 nM?
0.0

A record lists C=C1C=C2c3cccc4c3[C@@H](CN4)C[C@H]2N(C)C1 [Example 4, (3β)-2,3-Dihydrolysergene] . Is its IC50 below 2000 nM?
0.0

A record lists COC(=O)[C@@H]1C=C2c3cccc4c3[C@@H](CN4)C[C@H]2N(C)C1 [Example 9, (3β)-2,3-Dihydro-methyllysergate] . Is its IC50 below 2000 nM?
1.0

A record lists CN1C[C@H](CC#N)C=C2c3cccc4c3[C@@H](CN4)C[C@H]21 [Example 6] . Is its IC50 below 2000 nM?
0.0

A record lists CN1C[C@H](CSc2ccccn2)C=C2c3cccc4c3[C@@H](CN4)C[C@H]21 [Example 8] . Is its IC50 below 2000 nM?
1.0

A record lists CSC[C@@H]1C=C2c3cccc4c3[C@@H](CN4)C[C@H]2N(C)C1 [Example 5] . Is its IC50 below 2000 nM?
1.0

A record lists CN1C[C@H](CSc2ccccc2)C=C2c3cccc4c3[C@@H](CN4)C[C@H]21 [Example 7] . Is its IC50 below 2000 nM?
1.0
